Where do the numbers come from? From ChEMBL document CHEMBL2331335.

# Test system: Hepatitis B virus
# assayDetails: Antiviral activity against HBV infected in human HepG2.2.15 cells assessed as inhibition of viral DNA replication
# Format: functional, organism-based
# testConditions: HepG2 2.2.15
propertyName: IC50 (µM)

1. CCOCC(=O)O[C@H]1C[C@@H]2C(=CC[C@@H]3[C@@]2(C)C(=O)C[C@]2(C)[C@@H]([C@@](C)(O)C(=O)CCC(C)(C)OC(=O)COCC)[C@H](OC(=O)COCC)C[C@@]32C)C(C)(C)[C@@H]1OC(=O)COCC	81.4

A: CCCC(=O)O[C@@H]1[C@@H](O)C[C@@H]2C(=CC[C@@H]3[C@@]2(C)C(=O)C[C@]2(C)[C@@H]([C@@](C)(O)C(=O)CCC(C)(C)OC(C)=O)[C@H](O)C[C@@]32C)C1(C)C
B: C[C@H](Cn1cnc2c(N)ncnc21)OCP(=O)(O)O [TENOFOVIR ANHYDROUS]
C: CC(=O)O[C@H]1C[C@@H]2C(=CC[C@@H]3[C@@]2(C)C(=O)C[C@]2(C)[C@@H]([C@@](C)(O)C(=O)CCC(C)(C)OC(C)=O)[C@H](OC(C)=O)C[C@@]32C)C(C)(C)[C@@H]1OC(C)=O
D: CCC(=O)O[C@H]1C[C@@H]2C(=CC[C@@H]3[C@@]2(C)C(=O)C[C@]2(C)[C@@H]([C@@](C)(O)C(=O)CCC(C)(C)OC(C)=O)[C@H](O)C[C@@]32C)C(C)(C)[C@@H]1OC(=O)CC
Input: Order by IC50, ascending. I'd appreciate it if you listed the labels in the requested order.
Output: B, A, D, C

* * *

# Test system: Hepatitis B virus
# assayDetails: Antiviral activity against HBV infected in human HepG2.2.15 cells assessed as inhibition of viral surface antigen production
# Assay type: functional, organism-based
# testConditions: HepG2 2.2.15
pIC50: −log10 of the molar value.
propertyName: pIC50

1. COCC(=O)O[C@H]1C[C@H]2[C@]3(C)C(=O)C[C@]4(C)[C@@H]([C@@](C)(O)C(=O)CCC(C)(C)OC(C)=O)[C@H](OC(=O)COC)C[C@@]4(C)[C@@H]3C[C@@H](O)[C@@]2(OC(=O)c2cccc(Cl)c2)C(C)(C)[C@@H]1OC(=O)COC	< 2.76

Pending compound:
Input: Entry `CC(=O)OC(C)(C)CCC(=O)[C@](C)(O)[C@H]1[C@H](O)C[C@@]2(C)[C@@H]3CC=C4[C@@H](C[C@H](O)[C@@H](O)C4(C)C)[C@]3(C)C(=O)C[C@]12C` has what pIC50?
Output: < 4.18

* * *

# Tested on: Hepatitis B virus
# assayDetails: Antiviral activity against HBV infected in human HepG2.2.15 cells assessed as inhibition of viral DNA replication
# Assay type: functional, organism-based
# testConditions: HepG2 2.2.15
propertyName: IC50 (µM)

1. CC(=O)OC(C)(C)CCC(=O)[C@](C)(O)[C@H]1[C@H](O)C[C@@]2(C)[C@@H]3CC=C4[C@@H](C[C@H](O)[C@@H](O)C4(C)C)[C@]3(C)C(=O)C[C@]12C [HEMSLECIN A]	11.4

I: CC(=O)O[C@@H]1[C@@H](O)C[C@@H]2C(=CC[C@@H]3[C@@]2(C)C(=O)C[C@]2(C)[C@@H]([C@@](C)(O)C(=O)CCC(C)(C)OC(C)=O)[C@H](O)C[C@@]32C)C1(C)C
II: CCCC(=O)O[C@H]1C[C@@H]2C(=CC[C@@H]3[C@@]2(C)C(=O)C[C@]2(C)[C@@H]([C@@](C)(O)C(=O)CCC(C)(C)OC(C)=O)[C@H](O)C[C@@]32C)C(C)(C)[C@@H]1O
Input: Quick check, higher IC50 between I and II ? Pick one; state its label.
Output: II
